Tested on: F1*sub RNA substrate (template-directed ligation)
Assay: fraction ligated after 30 min (ligated reads / total reads); higher = more ligase activity; sequences stand for … in GAGACCGCAACTGAAAAGTTGT…AGTTCTGCACGTAGAAGCAAAAGGC
Details: 42 °C
I would appreciate it if you labelled entries yes when fraction ligated is 0.1 or higher, otherwise no.

API: above_or_equal(metric=fraction ligated, cutoff=0.1) for item ATCACTTGTCGAAGACACTTTGGATGGGTTGA [2d11]
yes

Is the recorded value of fraction ligated equal to or greater than 0.1 for this sequence? TATCACTTGGTAAGACACTTTGGATGGTTGA [3d1596]
yes

Evaluate TATACTTGTCGTAAGACACTTGGAGGGTTGA [3d928] : fraction ligated at minimum 0.1?
no

In plain terms: is recorded fraction ligated at least 0.1 for TATACTTGTCGTAAGCACTTTGATGGGTTGA [3d897] ?
yes

Decide: fraction ligated of TATCACTTGTCGTAAGACCTTTGGATGGTTGA [2d266] >= 0.1?
yes

Does TATCACTTGTCGTAGCACTTTGGTGGGTTGA [3d2008] have a reported fraction ligated of at least 0.1?
no

----------
Test system: F1*sub RNA substrate (template-directed ligation)
Experiment: fraction ligated after 30 min (ligated reads / total reads); higher = more ligase activity; sequences stand for … in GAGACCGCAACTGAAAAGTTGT…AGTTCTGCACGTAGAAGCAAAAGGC
Conditions: 42 °C
For each entry below, report its fraction ligated value.
Numbers only.

Answered examples (10):
>>> print(df.to_string())
                             chain_sequence  number
0  ATCACTTGTCGTAAGACACTTTGGATGTGGTTGA [s38]   0.693
1  TATCACTTGCGTAAGACACTTTGATGGTTGA [3d1691]     0.1
2   TTACTTGTCGTAAGACACTTTGGATGGGTTA [3d296]  0.0531
3  TATCACTGTCGTAAAACTTTGGATGGGTTGA [3d1398]   0.842
4   TTCACTTGTCTAGACACTTTGGATGGGTTGA [3d403]   0.703
5  TATCACTGTCGTAAGACCTTTGGATGGTTGA [3d1430]   0.628
6  TATCACTTGTCGTAAGACACTTTGGAGGGTT [3d2279]  0.0132
7  TATCACTTGTCGTAAACACTTTGGTGGTTGA [3d2095]  0.0341
8    ATCATTGTCGTAAGACACTTTGATGGGTTGA [3d99]   0.664
9  TATCACTTGTGTAGACACTTTGGATGGGTTGA [2d181]   0.871

Field: next sequence
Recall the reported fraction ligated of TATCACTTGTCGTAAGAACTTTGATGGGTTA [3d2170] when tested on F1*sub RNA substrate (template-directed ligation).
0.09

----------
Exercise: for every item that follows, state its recorded fraction ligated.
System: F1*sub RNA substrate (template-directed ligation)
Assay: fraction ligated after 30 min (ligated reads / total reads); higher = more ligase activity; sequences stand for … in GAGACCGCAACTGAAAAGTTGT…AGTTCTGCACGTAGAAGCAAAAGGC
Settings: 42 °C
Answers are plain numbers.

Reference set, count: 3
                             chain_sequence  number
0  TATCACTTGTCGTAGCACTTTGGATGGGTTGA [2d223]   0.823
1   TTCACTTGTCTAAACACTTTGGATGGGTTGA [3d404]   0.719
2  TATCACTTGTCGTAAACCTTTGGAGGGTTGA [3d2070]    0.15

Hey, can you go through the list below and give me fraction ligated for every item?
1. TATCACTTGTCGTAAGCACTTGGAGGGTTGA [3d2131]
2. TATCCTTGTCGTAAGACACTTGGATGGGTTA [3d1102]
3. TATCACTTTCGTAAGACACTTTGATGGGTTA [3d1572]
4. TTCACTTGTCGTAAGACACTTTGGATGGGTTA [2d45]
5. TATCTTTCGTAAGACACTTTGGATGGGTTGA [3d740]
6. TATCATTGTCGAAACACTTTGGATGGGTTGA [3d1202]
7. TATCACTTGTCGAAGCACTTTGATGGGTTGA [3d1929]
8. TATCACTTGTCAAGACACTTTGGATGGTTGA [3d1820]

1. 0.072
2. 0.402
3. 0.0837
4. 0.619
5. 0.837
6. 0.81
7. 0.736
8. 0.288

FYI, the data here is from the supplement of paper PMC6755084.
